Hello, the source for this data is patent US20230348465A1, in case you need it.

# assayed system: rVMAT2 (Rattus norvegicus)
# Construct: expressed in transfected cells; host or cells: HEK cells, stably transfected (rVMAT2-HEK)
# Sequence (Q01827 whole entry): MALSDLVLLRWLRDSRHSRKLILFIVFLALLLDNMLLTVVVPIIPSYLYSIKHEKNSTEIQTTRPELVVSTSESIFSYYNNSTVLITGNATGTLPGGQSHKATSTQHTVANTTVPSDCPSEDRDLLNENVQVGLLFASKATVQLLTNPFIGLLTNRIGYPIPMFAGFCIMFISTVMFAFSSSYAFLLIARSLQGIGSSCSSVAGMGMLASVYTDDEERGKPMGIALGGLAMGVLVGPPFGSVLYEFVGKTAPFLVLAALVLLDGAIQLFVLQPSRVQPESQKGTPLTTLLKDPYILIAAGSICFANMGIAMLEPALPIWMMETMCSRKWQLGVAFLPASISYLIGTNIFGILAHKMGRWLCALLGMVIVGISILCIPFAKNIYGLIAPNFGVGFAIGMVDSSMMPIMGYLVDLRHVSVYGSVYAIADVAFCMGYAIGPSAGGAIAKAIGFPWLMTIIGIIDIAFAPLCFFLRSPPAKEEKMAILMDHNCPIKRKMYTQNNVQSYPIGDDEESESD
# test method notes: rVMAT2 screening assay: inhibition of uptake of the fluorescent substrate FFN206 in stably transfected rVMAT2-HEK cells
# Assay type: cell-based
# condition notes: rVMAT2-HEK cells, FFN206 0.75 µM, mean ± SEM, n ≥ 4; read-out: VMAT2 IC50
pIC50: −log10 of the molar value.
Decide using pIC50: a value greater than or equal to 6 is Fulfilled, a smaller one is Not fulfilled.

Tell me whether pIC50 is at least 6 here: CCC1CC2CC3c4[nH]c5ccc(OC)c(Br)c5c4CCN(C2)C13 (stereo not shown)
Not fulfilled

Dear colleague, could you confirm whether CCC1CC2CC3c4[nH]c5ccc(C(N)=O)cc5c4CCN(C2)C13 (stereo not shown) [Compound 2, Ibogamine-10-carboxamide] has pIC50 at or above 6?
Not fulfilled

Would you say CCC1CC2CC3c4c(c5cc(C#N)ccc5n4C)CCN(C2)C13 (stereo not shown) shows pIC50 at minimum 6?
Fulfilled

As a next step, examine the molecule that follows.
Does the reported pIC50 for CCC1CC2CC3c4[nH]c5ccccc5c4CCN(C2)C13 (stereo not shown) fall at or above the 6 mark?
Not fulfilled
